Each recorded value in this set is attributed to ChEMBL document CHEMBL1128173.

# TARGET: Glutamate receptor ionotropic, AMPA (Rattus norvegicus) (UniProt P19491+P19492+P19493+P19490)
# PROTOCOL: Binding affinity against rat brain Non N-methyl-D-aspartate glutamate receptor glutamate site expressed in Xenopus oocyte
Field: class. Source value: Kb. Ranges: group 1 (below 3 µM), group 2 (3 µM to below 10 µM), group 3 (10 µM or more)

structure_as_smiles=Oc1nc2cc(C(F)(F)F)c(Cl)c(Cl)c2nc1O group="group 1"
structure_as_smiles=O=[N+]([O-])c1c(Br)ccc2nc(O)c(O)nc12 group="group 3"
structure_as_smiles=O=[N+]([O-])c1c(C(F)(F)F)cc(Cl)c2nc(O)c(O)nc12 group="group 3"
structure_as_smiles=Oc1nc2ccccc2nc1O group="group 3"
structure_as_smiles=Oc1nc2cc(F)c(F)c(F)c2nc1O group="group 3"
structure_as_smiles=Oc1nc2cc(F)c(Cl)cc2nc1O group="group 3"
structure_as_smiles=Oc1nc2cc(Cl)c(Cl)c(C(F)(F)F)c2nc1O group="group 1"
structure_as_smiles=Oc1nc2cc(C(F)(F)F)cc(Br)c2nc1O group="group 2"
structure_as_smiles=Oc1nc2cc(Br)cc(Br)c2nc1O group="group 2"
structure_as_smiles=O=[N+]([O-])c1cccc2nc(O)c(O)nc12 group="group 3"
structure_as_smiles=Oc1nc2cc(F)cc(C(F)(F)F)c2nc1O group="group 3"
structure_as_smiles=Oc1nc2cc(C(F)(F)F)cc(Cl)c2nc1O group="group 2"
structure_as_smiles=Oc1nc2cc(Cl)cc(Cl)c2nc1O group="group 2"
structure_as_smiles=O=[N+]([O-])c1c(Br)c(C(F)(F)F)cc2nc(O)c(O)nc12 group="group 1"
structure_as_smiles=O=[N+]([O-])c1c(F)c(Cl)cc2nc(O)c(O)nc12 group="group 1"
structure_as_smiles=Oc1nc2cc(C(F)(F)F)cc(C(F)(F)F)c2nc1O group="group 1"
structure_as_smiles=Oc1nc2ccc(Br)cc2nc1O group="group 3"

----------
# PROTOCOL: Selectivity for glycine site
Please use the following Selectivity ranges when assigning a class: lower: < 10; middle: ≥ 10 and < 40; upper: ≥ 40

structure_as_smiles=Oc1nc2cc(Cl)c(Cl)cc2nc1O group=middle
structure_as_smiles=O=[N+]([O-])c1cc2nc(O)c(O)nc2cc1Cl group=lower
structure_as_smiles=O=[N+]([O-])c1cc(Cl)cc2nc(O)c(O)nc12 group=middle
structure_as_smiles=O=[N+]([O-])c1c(F)c(Br)cc2nc(O)c(O)nc12 group=middle
structure_as_smiles=O=[N+]([O-])c1c(Cl)ccc2nc(O)c(O)nc12 group=upper
structure_as_smiles=Oc1nc2cc(F)c(F)c(F)c2nc1O group=lower
structure_as_smiles=Oc1nc2cc(Cl)c(Cl)c(Cl)c2nc1O group=upper
structure_as_smiles=O=c1[nH]c2cc(Cl)c(Cl)c([N+](=O)[O-])c2[nH]c1=O group=upper
structure_as_smiles=O=[N+]([O-])c1c(Br)ccc2nc(O)c(O)nc12 group=middle
structure_as_smiles=O=[N+]([O-])c1c(F)c(Cl)c(F)c2nc(O)c(O)nc12 group=middle
structure_as_smiles=Oc1nc2cc(F)c(F)cc2nc1O group=lower
structure_as_smiles=Oc1nc2c(F)c(F)c(F)c(F)c2nc1O group=lower
structure_as_smiles=O=[N+]([O-])c1c(Br)c(F)cc2nc(O)c(O)nc12 group=middle
structure_as_smiles=O=[N+]([O-])c1c(Cl)c(Br)cc2nc(O)c(O)nc12 group=upper
structure_as_smiles=Oc1nc2cc(Br)c(C(F)(F)F)cc2nc1O group=lower
structure_as_smiles=Oc1nc2cc(Cl)c(Br)cc2nc1O group=middle
structure_as_smiles=Oc1nc2cc(Br)cc(C(F)(F)F)c2nc1O group=middle
structure_as_smiles=Nc1c(Cl)c(Cl)cc2nc(O)c(O)nc12 group=upper
structure_as_smiles=Oc1nc2cc(Br)c(Br)cc2nc1O group=middle
structure_as_smiles=Oc1nc2ccc(Br)cc2nc1O group=lower
structure_as_smiles=O=[N+]([O-])c1c(F)c(Cl)cc2nc(O)c(O)nc12 group=upper
structure_as_smiles=O=[N+]([O-])c1c(Br)c(Br)cc2nc(O)c(O)nc12 group=upper
structure_as_smiles=Nc1c(Br)c(Br)cc2nc(O)c(O)nc12 group=upper
structure_as_smiles=CC(=O)Nc1c(Cl)c(Cl)cc2nc(O)c(O)nc12 group=middle
